pKi: −log10 of the molar value.
Dear all, I have gathered published pKi values for 5-hydroxytryptamine receptor 7 (Homo sapiens, UniProt P34969); the list follows.
quantity_name: pKi

>>> print(df.to_string())
                                   compound                               measured_on  result_value
0           Cc1cccc(C)c1-c1cccc(SCCN(C)C)n1  5-hydroxytryptamine receptor 7 (Homo sapiens, UniProt P34969)          6.89
1  O=C1Nc2cccc3c2C1(CCCN1CCc2ccccc2C1)CCC3 (stereo not given)  5-hydroxytryptamine receptor 7 (Homo sapiens, UniProt P34969)          8.08
2  O=C1Nc2ccccc2C12CCN(CCN1CCN(c3cccc(Cl)c3)CC1)C2 (stereo not given)  5-hydroxytryptamine receptor 7 (Homo sapiens, UniProt P34969)          7.26
3  CC(C)c1ccccc1OCCN1CCC(NS(=O)(=O)c2cc(F)ccc2F)CC1  5-hydroxytryptamine receptor 7 (Homo sapiens, UniProt P34969)          8.10
4  CC(Oc1cc(C(F)(F)F)ccc1C(F)(F)F)c1nc(N)nc(N2CCN(C)CC2)n1 (stereo not given)  5-hydroxytryptamine receptor 7 (Homo sapiens, UniProt P34969)          4.70
5  O=S(=O)(NC1CCN(CCCOc2ccccc2-c2ccccc2)CC1)c1cccc(Cl)c1  5-hydroxytryptamine receptor 7 (Homo sapiens, UniProt P34969)          7.28
6    C[C@H](Nc1cncc(NCCc2ccccc2)c1)c1ccccc1  5-hydroxytryptamine receptor 7 (Homo sapiens, UniProt P34969)          7.89
7  O=C(CCCCCN1CCN(c2ccccc2-c2ccccc2)CC1)NCc1ccc(OCCN2CCOCC2)cc1  5-hydroxytryptamine receptor 7 (Homo sapiens, UniProt P34969)          7.80
8  c1ccc2c3c([nH]c2c1)C(Cc1ccc2c(c1)OCO2)NCC3 (stereo not given)  5-hydroxytryptamine receptor 7 (Homo sapiens, UniProt P34969)          8.05
9  Cc1ccc2c(OCCN3CCC(Cc4cc5c(cc4F)OCC(=O)N5)CC3)cc(Cl)cc2n1  5-hydroxytryptamine receptor 7 (Homo sapiens, UniProt P34969)          7.40

----------
pKi: −log10 of the molar value.
// cross-study collection: pKi for 5-hydroxytryptamine receptor 7 (Homo sapiens, UniProt P34969)
quantity_name: pKi

>>> df
                                   compound  result_value
0  Cn1c(=O)c2c(ncn2CCCCN2CCN(c3cccc(Cl)c3Cl)CC2)n(C)c1=O          7.14
1  O=C1Nc2cccc3c2C1(CCCCN1CCN(c2ccccn2)CC1)CCC3 (stereo not given)          8.73
2  COc1cc2c(cc1OC)CN(/C=N/c1ccc3c(c1)N(C(=O)OC(C)(C)C)CC3)CC2          5.66
3  O=S(=O)(c1cncc2ccccc12)N1CCC(CCN2CCN(c3cccc(Cl)c3)CC2)CC1          7.74
4  O=C1c2ccccc2S(=O)(=O)N1CCCCN1CCN(c2cccc(Cl)c2Cl)CC1          6.43

----------
// cross-study collection: Ki for 5-hydroxytryptamine receptor 7 (Homo sapiens)
Label YES when Ki < 0.04 µM; otherwise NO.

>>> df
                                    molecule  discrete_label
 0  CC(C)c1ccccc1N1CCN(CCCCCCC(=O)N2Cc3ccccc3C[C@H]2C(N)=O)CC1              NO
 1  NC(N)=NC(=O)c1ccc2c(c1)C(O)c1ccc(Cl)cc1-2 (stereo unspecified)              NO
 2  O=S(=O)(NCCCCN1CCc2sccc2C1)c1cnc2ccccc2c1              NO
 3  O=S(=O)(NCC1CCN(CCOc2cccc(F)c2)CC1)c1ccc(F)cc1              NO
 4  Cl.Cl.Cl.O=c1c2ccc(Cl)cc2oc2c(CN3CCN(CCO)CC3)cccc12              NO
 5  Cc1sc2nc(CCCCCN3CCN(c4cccc(Cl)c4)CC3)[nH]c(=O)c2c1C              NO
 6  O=c1c2cnc3ccccc3c2ncn1CCCCN1CCN(c2ccccc2F)CC1              NO
 7  O=c1c2cnc3ccccc3c2ncn1CCCCN1CCN(c2ccc(Cl)cc2)CC1              NO
 8  OC(CCN1CCC(N2CCOCC2)CC1)c1csc2ccccc12 (stereo unspecified)              NO
 9  COc1ccc(/C=C2\NC(=O)N(CCCCN3CCN(c4cccc(Cl)c4Cl)CC3)C2=O)cc1OC             YES
10  COc1ccc(-c2ccccc2N2CCN(CCOCCC(=O)NCc3ccccn3)CC2)cc1             YES
11  COc1cc2ncnc(N3CCC(CN4CCN(c5ccc(O)cc5)CC4)C3)c2cc1OC (stereo unspecified)              NO
12  COc1cc2c(cc1OC)CN(/C=N/c1ccc3c(c1)C(OC(C)=O)CCC3)CC2 (stereo unspecified)              NO
13  COc1ccc(NC(=O)c2ccc(-c3ccc(-c4noc(C)n4)cc3C)cc2)cc1N1CCN(C)CC1              NO
14  NC(=O)[C@@H]1Cc2ccccc2CN1C(=O)CCCCCN1CCN(c2ccccc2O)CC1              NO
15  CCOc1ccccc1C(=O)NC1CCN(CCOc2ccccc2-c2ccccc2)C1 (stereo unspecified)              NO
16  O=S(=O)(N[C@H]1CCN(CCOc2ccccc2-c2ccccc2)C1)c1ccc(F)cc1             YES
17  O=C1Nc2cccc3c2C1(CCCCN1CCN(c2ccccc2)CC1)CCC3 (stereo unspecified)             YES
18  CC(C)Cn1nc(S(=O)(=O)c2cccc3ccccc23)c2cc(N3CCNCC3)ccc21              NO

----------
// cross-study collection: pKi for 5-hydroxytryptamine receptor 7 (Homo sapiens, UniProt P34969)
pKi: −log10 of the molar value.
quantity_name: pKi

In [3]: df
Out[3]:
                                    compound  quantity_name  limit_operator  result_value
 0  O=C1c2ccccc2S(=O)(=O)N1CCCCCCN1CCN(c2ccccn2)CC1            pKi               =          6.26
 1  CC(C)c1ccccc1OCC(C)N1CCC(NS(=O)(=O)c2ccc(F)cc2)CC1 (stereo unspecified)            pKi               =          7.13
 2  CC(Nc1nc(N)nc(NCCc2cccs2)n1)c1ccc(F)cc1 (racemic)            pKi               =          8.70
 3    O=S(=O)(NC1CCN(CCOc2ccccc2)CC1)c1cccs1            pKi               =          6.81
 4  COc1cc(OC)c(C2NCCc3c2[nH]c2ccc(Cl)cc32)cc1OC (stereo unspecified)            pKi               =          8.60
 5  O=c1c2cnc3ccccc3c2ncn1CCCCN1CCN(c2ccccc2Cl)CC1            pKi               =          6.82
 6       O=S(=O)(NCCCN1CCc2ccccc2C1)c1ccccc1            pKi               =          6.57
 7  O=c1c(-c2ccc(F)cc2)c2n(c(=O)n1CCCCN1CCCC(c3c[nH]c4ccccc34)C1)CCCC2 (stereo unspecified)            pKi               =          5.77
 8  CSc1ccc2c(c1)CC(N1CCN(C)CC1)c1ccccc1S2 (stereo unspecified)            pKi               =          8.95
 9  CCN1C(=O)C2(CCCCN3CCc4sccc4C3)CCCc3cccc1c32 (stereo unspecified)            pKi               =          6.76
10  CCCCSC1=CCc2ccc(/N=C/N3CCc4cc(OC)c(OC)cc4C3)cc21            pKi               <          3.52
11  Fc1cccc(-c2cc(F)ccc2OCCN2CCC(c3c[nH]c4ccc(F)cc34)CC2)c1            pKi               =          7.46
12  O=c1[nH]c2ccccc2n1CCCCCN1CCN(c2ccccc2)CC1            pKi               =          8.22
13  COc1ccccc1N1CCN(CCCCC(=O)NCc2ccccc2-c2ccccc2F)CC1            pKi               =          7.44
14  O=c1c(-c2ccccc2)c2n(c(=O)n1CCCCN1CCCC(c3c[nH]c4ccccc34)C1)CCCC2 (stereo unspecified)            pKi               =          5.96
15  CCC(Oc1cc(F)ccc1C(F)(F)F)c1nc(N)nc(N2CCN(C)CC2)n1 (stereo unspecified)            pKi               =          5.13
16  O=S(=O)(NCCCCN1CCC2CCCCC2C1)c1cnc2ccccc2c1 (stereo unspecified)            pKi               =          6.00
17  COc1ccccc1N1CCN(Cc2ccccc2-c2ccc(Cl)cc2)CC1            pKi               =          6.66
18  COc1ccccc1N1CCN(CCN(C(=O)C23C4C5C2C2C3C4C52I)c2ccccn2)CC1 (stereo unspecified)            pKi               =          6.79
19  O=C(c1nc2c(N3CCNCC3)cccc2[nH]1)c1cccc2ccccc12            pKi               <          6.30
20  O=c1[nH]c(CCCCN2CCN(c3ccccc3)CC2)nc2ccccc12            pKi               =          6.84
